target: PIM2 (Homo sapiens); construct: purchased DiscoverX (KINOMEscan); assay: KINOMEscan competitive binding; details: n=1, read-out: Percent inhibition, PIM2
Sequence (Q9P1W9 whole entry): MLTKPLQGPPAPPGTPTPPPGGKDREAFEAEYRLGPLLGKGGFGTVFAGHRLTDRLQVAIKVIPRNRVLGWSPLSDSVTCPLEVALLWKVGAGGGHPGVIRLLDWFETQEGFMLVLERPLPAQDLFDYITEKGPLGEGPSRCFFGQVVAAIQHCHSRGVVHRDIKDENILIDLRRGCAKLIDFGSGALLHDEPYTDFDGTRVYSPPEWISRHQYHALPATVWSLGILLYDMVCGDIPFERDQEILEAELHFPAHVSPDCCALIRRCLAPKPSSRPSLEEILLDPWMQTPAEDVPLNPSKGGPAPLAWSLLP
# inhibition at 10 µM annotations
The response must be a number in % with no trailing unit.

C[C@@H](Oc1cc(-c2cnc3ccccn23)sc1C(N)=O)c1ccccc1Cl ... 0
Cc1ccc(O)cc1N(C)c1ccnc(Nc2cccc(S(N)(=O)=O)c2)n1 ... 0
Nc1ncc2c(-c3ccncc3)c[nH]c2n1 ... 0
Cc1ccc(O)cc1Nc1ccnc(Nc2cccc(C(N)=O)c2)n1 ... 0
Clc1ccc(Nc2ncc(-c3ccccc3)s2)cc1 ... 0

Consider the record given below.
Query :: Query (compound): `CN1CCN(c2ccc(Nc3nccc(-c4cnn5ncccc45)n3)cc2C#N)CC1` ; field requested: inhibition at 10 µM
Result :: 99.7

====

Recorded inhibition at 10 µM values for a group of molecules are listed next.
biological target: PDGFRα (Homo sapiens, UniProt P16234); construct: purchased DiscoverX (KINOMEscan); experiment: KINOMEscan competitive binding; conditions: KINOMEscan, 10 µM, n=1; read-out: Percent inhibition, PDGFRA
Sequence (P16234 24-1089): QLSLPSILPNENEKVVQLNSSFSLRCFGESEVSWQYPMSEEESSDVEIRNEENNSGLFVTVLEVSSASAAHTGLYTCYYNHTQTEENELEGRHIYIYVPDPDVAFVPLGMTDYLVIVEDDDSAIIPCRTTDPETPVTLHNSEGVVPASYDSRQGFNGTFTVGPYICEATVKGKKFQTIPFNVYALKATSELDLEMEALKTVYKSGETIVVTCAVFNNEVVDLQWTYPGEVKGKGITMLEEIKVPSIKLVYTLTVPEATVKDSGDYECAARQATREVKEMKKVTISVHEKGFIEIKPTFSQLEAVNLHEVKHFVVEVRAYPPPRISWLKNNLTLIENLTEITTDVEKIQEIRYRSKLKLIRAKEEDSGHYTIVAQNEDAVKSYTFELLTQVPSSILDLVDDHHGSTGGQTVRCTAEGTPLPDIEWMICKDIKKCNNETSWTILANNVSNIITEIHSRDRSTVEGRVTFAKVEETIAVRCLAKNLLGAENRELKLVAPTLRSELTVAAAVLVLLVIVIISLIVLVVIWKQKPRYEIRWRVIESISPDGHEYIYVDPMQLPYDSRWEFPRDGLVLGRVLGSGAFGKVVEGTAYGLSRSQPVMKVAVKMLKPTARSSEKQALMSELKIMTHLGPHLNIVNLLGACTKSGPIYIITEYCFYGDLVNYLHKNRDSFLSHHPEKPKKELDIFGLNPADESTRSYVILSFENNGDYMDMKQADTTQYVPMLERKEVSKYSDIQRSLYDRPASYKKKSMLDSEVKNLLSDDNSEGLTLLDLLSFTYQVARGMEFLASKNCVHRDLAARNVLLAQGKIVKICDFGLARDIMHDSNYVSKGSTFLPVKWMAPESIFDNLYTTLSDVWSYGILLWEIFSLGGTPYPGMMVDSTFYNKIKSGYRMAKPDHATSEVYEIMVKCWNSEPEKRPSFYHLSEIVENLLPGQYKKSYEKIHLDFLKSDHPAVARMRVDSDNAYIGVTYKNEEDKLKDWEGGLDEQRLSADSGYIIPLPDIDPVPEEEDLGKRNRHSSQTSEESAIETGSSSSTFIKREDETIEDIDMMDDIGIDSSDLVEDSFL
Please append the unit to your numeric answer.

Below are worked cases with known answers.
Fc1cccc(COc2ccc(Nc3ncnc4c3CN(CCN3CCOCC3)CC4)cc2Cl)c1 [Compound 6] ... 0%
Cc1ccc(O)cc1Nc1ccnc(Nc2cccc(C(N)=O)c2)n1 [Compound 3] ... 99.2%
COc1ccc(Nc2nccc(-c3cnn4ncccc34)n2)cc1 [Compound 2] ... 99.9%

Query :: Please give the measured inhibition at 10 µM for this molecule: Clc1ccc(Nc2ncc(-c3ccccc3)s2)cc1 [Compound 10]
Result :: 98.9%

Query :: Entry under review: COc1cc(Nc2nccc(-c3sc(N)nc3-c3cccc(NC(=O)c4c(F)cccc4F)c3)n2)cc(OC)c1OC [Compound 7] . Reported inhibition at 10 µM?
Result :: 100%

Query :: I'd like to know its inhibition at 10 µM. The molecule in question is CN1CCN(c2ccc(Nc3nccc(-c4cnn5ncccc45)n3)cc2C#N)CC1 [Compound 1]
Result :: 100%

Query :: # get_value(readout='inhibition at 10 µM', item= C[C@@H](Oc1cc(-c2cnc3ccccn23)sc1C(N)=O)c1ccccc1Cl [Compound 8] )
Result :: 0%

====

This listing pairs compounds with measured inhibition at 10 µM.
target: PAK1 (Homo sapiens); construct: purchased DiscoverX (KINOMEscan); test: KINOMEscan competitive binding; conditions: n=1, read-out: Percent inhibition, PAK1
Sequence (Q13153 whole entry): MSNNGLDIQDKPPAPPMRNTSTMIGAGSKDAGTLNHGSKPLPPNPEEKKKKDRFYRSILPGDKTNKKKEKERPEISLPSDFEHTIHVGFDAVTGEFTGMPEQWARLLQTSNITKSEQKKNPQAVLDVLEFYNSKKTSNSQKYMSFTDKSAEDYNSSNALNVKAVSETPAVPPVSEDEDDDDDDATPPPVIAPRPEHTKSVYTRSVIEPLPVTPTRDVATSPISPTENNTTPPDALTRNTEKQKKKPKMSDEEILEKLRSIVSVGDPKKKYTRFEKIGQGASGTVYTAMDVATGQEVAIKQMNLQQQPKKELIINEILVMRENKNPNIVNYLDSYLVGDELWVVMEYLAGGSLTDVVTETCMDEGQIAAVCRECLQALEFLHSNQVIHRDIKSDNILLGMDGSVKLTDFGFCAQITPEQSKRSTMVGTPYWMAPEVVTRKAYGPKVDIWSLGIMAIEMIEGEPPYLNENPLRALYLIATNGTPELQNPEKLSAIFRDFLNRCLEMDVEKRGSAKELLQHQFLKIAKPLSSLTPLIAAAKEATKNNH
# number only, unit % dropped from output

Query :: # get_value(readout= inhibition at 10 µM, system= PAK1 (Homo sapiens)) for Fc1cccc(COc2ccc(Nc3ncnc4c3CN(CCN3CCOCC3)CC4)cc2Cl)c1 [Compound 6]
Result :: 0

Query :: Checklist item: inhibition at 10 µM tested on PAK1 (Homo sapiens), entry CN1CCN(c2ccc(Nc3nccc(-c4cnn5ncccc45)n3)cc2C#N)CC1 [Compound 1] , value?
Result :: 99.8

Query :: Query for PAK1 (Homo sapiens): what inhibition at 10 µM does the record show for Clc1ccc(Nc2ncc(-c3ccccc3)s2)cc1 [Compound 10] ?
Result :: 0

Query :: So what inhibition at 10 µM did COc1ccc(Nc2nccc(-c3cnn4ncccc34)n2)cc1 [Compound 2] get with PAK1 (Homo sapiens)?
Result :: 0

====

# maps each entry to its inhibition at 10 µM
molecular target: ULK3(mouse) (Mus musculus); construct: purchased DiscoverX (KINOMEscan); assay: KINOMEscan competitive binding; conditions: n=1, read-out: Percent inhibition, ULK3(mouse)
Sequence (Q3U3Q1 whole entry): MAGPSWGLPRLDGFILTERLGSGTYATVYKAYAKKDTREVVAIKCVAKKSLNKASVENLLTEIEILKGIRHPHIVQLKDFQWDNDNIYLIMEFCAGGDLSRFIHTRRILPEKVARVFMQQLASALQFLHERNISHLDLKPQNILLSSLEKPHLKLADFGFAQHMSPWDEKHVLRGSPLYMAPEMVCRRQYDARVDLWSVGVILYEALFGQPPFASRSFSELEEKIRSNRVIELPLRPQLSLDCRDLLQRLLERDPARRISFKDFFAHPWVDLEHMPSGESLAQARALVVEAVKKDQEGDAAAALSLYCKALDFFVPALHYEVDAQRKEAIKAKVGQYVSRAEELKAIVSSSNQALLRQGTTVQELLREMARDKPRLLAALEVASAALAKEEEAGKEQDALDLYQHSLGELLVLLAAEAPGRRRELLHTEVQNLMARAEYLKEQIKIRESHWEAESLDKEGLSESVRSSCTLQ
Value expressed in %; do not type the unit.

Some solved cases for reference:
Nc1ncc2c(-c3ccncc3)c[nH]c2n1 ... 91.7
COc1ccc(Nc2nccc(-c3cnn4ncccc34)n2)cc1 ... 92.5

API: the following record is the query input.
Query :: Provide value of inhibition at 10 µM for this record tested with ULK3(mouse) (Mus musculus): `Cc1ccc(O)cc1Nc1ccnc(Nc2cccc(C(N)=O)c2)n1`
Result :: 91.5

====

biological target: YSK1 (Homo sapiens, UniProt O00506); construct: purchased DiscoverX (KINOMEscan); assay: KINOMEscan competitive binding; settings: n=1, read-out: Percent inhibition, YSK1
In this section we review reported inhibition at 10 µM values for a set of molecules.
The figure you give is taken to be in %; do not add the unit.

Query :: Fill in: inhibition at 10 µM of `COc1cc(Nc2nccc(-c3sc(N)nc3-c3cccc(NC(=O)c4c(F)cccc4F)c3)n2)cc(OC)c1OC` is ___
Result :: 96.3

====

target: panel of 203 kinases (Homo sapiens); construct: purchased DiscoverX (KINOMEscan); test: KINOMEscan competitive binding, whole panel; details: 10 µM, n=1; kinase LOK; read-out: Percent inhibition LOK
Attribute: inhibition at 10 µM
Provide only the numeric value, understood in %.

See these solved cases before continuing.
C[C@@H](Oc1cc(-c2cnc3ccccn23)sc1C(N)=O)c1ccccc1Cl ... 100
Clc1ccc(Nc2ncc(-c3ccccc3)s2)cc1 ... 0
Cc1ccc(O)cc1N(C)c1ccnc(Nc2cccc(S(N)(=O)=O)c2)n1 ... 99.6

Query :: Could you share which inhibition at 10 µM value was measured for `COc1cc(Nc2nccc(-c3sc(N)nc3-c3cccc(NC(=O)c4c(F)cccc4F)c3)n2)cc(OC)c1OC` ?
Result :: 100

====

biological target: SNF1LK2 (Homo sapiens); construct: purchased DiscoverX (KINOMEscan); experiment: KINOMEscan competitive binding; conditions: n=1, read-out: Percent inhibition, SNF1LK2
Sequence (Q9H0K1 whole entry): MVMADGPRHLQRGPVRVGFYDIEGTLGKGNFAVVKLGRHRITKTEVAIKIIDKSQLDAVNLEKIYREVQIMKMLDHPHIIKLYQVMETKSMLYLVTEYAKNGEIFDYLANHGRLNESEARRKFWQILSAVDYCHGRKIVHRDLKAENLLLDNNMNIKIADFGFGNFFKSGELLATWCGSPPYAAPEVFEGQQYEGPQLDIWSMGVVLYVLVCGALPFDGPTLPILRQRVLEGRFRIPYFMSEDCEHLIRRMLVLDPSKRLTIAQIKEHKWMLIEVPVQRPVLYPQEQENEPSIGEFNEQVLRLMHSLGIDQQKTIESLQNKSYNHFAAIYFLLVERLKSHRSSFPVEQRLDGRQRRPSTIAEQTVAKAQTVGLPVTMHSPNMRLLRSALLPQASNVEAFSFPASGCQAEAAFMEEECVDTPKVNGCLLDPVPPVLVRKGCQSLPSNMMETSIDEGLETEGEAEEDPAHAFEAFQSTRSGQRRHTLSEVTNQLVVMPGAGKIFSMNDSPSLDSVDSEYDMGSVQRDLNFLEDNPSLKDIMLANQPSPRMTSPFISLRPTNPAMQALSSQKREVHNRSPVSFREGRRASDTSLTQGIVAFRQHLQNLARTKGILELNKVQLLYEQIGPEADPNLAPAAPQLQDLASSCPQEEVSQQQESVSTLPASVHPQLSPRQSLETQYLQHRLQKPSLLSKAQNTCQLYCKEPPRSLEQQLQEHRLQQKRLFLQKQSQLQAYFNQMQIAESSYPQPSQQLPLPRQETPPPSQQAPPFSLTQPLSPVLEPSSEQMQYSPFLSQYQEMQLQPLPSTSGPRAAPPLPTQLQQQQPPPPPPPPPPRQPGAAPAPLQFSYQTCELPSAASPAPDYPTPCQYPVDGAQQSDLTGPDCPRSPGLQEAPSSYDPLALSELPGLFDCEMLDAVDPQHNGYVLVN
Consider the following molecules and their measured inhibition at 10 µM readings.
Give the quantity in %, number only.

Worked cases, inhibition at 10 µM given:
COc1cc(Nc2nccc(-c3sc(N)nc3-c3cccc(NC(=O)c4c(F)cccc4F)c3)n2)cc(OC)c1OC ... 99.4
Cc1ccc(O)cc1N(C)c1ccnc(Nc2cccc(S(N)(=O)=O)c2)n1 ... 95.1
Fc1cccc(COc2ccc(Nc3ncnc4c3CN(CCN3CCOCC3)CC4)cc2Cl)c1 ... 0
Clc1ccc(Nc2ncc(-c3ccccc3)s2)cc1 ... 0
CN1CCN(c2ccc(Nc3nccc(-c4cnn5ncccc45)n3)cc2C#N)CC1 ... 69.9

Query :: Data request, read-out inhibition at 10 µM, for `Cc1ccc(O)cc1Nc1ccnc(Nc2cccc(C(N)=O)c2)n1`
Result :: 96.7

Query :: Any idea what inhibition at 10 µM was measured for `C[C@@H](Oc1cc(-c2cnc3ccccn23)sc1C(N)=O)c1ccccc1Cl` ?
Result :: 0

Query :: Sample `Nc1ncc2c(-c3ccncc3)c[nH]c2n1` — what was its inhibition at 10 µM?
Result :: 0

====

molecular target: KDR (VEGFR2) (Homo sapiens, UniProt P35968); construct: purchased DiscoverX (KINOMEscan); experiment: KINOMEscan competitive binding; details: KINOMEscan, 10 µM, n=1; read-out: Percent inhibition, VEGFR2
Sequence (P35968 20-1356): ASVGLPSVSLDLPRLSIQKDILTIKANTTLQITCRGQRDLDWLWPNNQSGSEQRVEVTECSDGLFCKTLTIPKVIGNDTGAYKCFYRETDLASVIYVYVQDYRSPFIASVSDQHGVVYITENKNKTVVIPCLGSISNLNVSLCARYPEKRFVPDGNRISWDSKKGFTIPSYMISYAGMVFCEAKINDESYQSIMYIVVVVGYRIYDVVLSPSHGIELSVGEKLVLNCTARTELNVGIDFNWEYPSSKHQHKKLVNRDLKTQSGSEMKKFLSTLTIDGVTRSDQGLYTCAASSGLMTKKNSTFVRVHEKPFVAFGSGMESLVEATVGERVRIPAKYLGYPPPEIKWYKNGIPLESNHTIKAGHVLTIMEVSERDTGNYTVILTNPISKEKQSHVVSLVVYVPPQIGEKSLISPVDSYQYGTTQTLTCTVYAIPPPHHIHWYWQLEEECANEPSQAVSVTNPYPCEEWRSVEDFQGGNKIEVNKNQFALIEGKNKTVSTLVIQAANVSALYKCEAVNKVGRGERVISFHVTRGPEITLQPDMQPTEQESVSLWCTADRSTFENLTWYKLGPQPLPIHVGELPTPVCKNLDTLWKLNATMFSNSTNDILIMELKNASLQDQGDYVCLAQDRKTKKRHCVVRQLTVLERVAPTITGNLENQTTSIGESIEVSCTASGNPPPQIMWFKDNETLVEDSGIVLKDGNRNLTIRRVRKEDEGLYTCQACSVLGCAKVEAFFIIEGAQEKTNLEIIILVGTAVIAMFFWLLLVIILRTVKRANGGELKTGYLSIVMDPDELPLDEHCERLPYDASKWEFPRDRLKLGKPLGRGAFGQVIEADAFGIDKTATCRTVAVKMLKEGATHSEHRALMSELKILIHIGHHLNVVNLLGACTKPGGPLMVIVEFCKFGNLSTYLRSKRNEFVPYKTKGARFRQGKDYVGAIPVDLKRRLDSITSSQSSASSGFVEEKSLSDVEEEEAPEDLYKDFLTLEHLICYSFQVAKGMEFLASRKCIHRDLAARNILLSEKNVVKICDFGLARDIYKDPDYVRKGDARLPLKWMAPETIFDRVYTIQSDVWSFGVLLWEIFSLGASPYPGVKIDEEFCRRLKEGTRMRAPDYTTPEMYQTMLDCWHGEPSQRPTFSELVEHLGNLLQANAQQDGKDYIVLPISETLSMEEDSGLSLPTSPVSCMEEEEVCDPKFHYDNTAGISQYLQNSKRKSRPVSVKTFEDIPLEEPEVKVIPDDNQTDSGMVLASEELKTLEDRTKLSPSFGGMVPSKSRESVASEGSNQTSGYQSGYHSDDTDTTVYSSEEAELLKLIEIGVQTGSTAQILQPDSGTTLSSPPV
inhibition at 10 µM values, listed per item
// return numeric value only (unit: %, not printed)

Fc1cccc(COc2ccc(Nc3ncnc4c3CN(CCN3CCOCC3)CC4)cc2Cl)c1 ... 0
Cc1ccc(O)cc1Nc1ccnc(Nc2cccc(C(N)=O)c2)n1 ... 81.5
COc1ccc(Nc2nccc(-c3cnn4ncccc34)n2)cc1 ... 92.9
COc1cc(Nc2nccc(-c3sc(N)nc3-c3cccc(NC(=O)c4c(F)cccc4F)c3)n2)cc(OC)c1OC ... 89.5

Would you kindly look at the next entry?
Query :: What measured inhibition at 10 µM is associated with `c1ccc(COc2cccc(-c3ccnc4[nH]ccc34)c2)cc1` on KDR (VEGFR2) (Homo sapiens, UniProt P35968)?
Result :: 0

====

biological target: panel of 203 kinases (Homo sapiens); construct: purchased DiscoverX (KINOMEscan); experiment: KINOMEscan competitive binding, whole panel; conditions: 10 µM, n=1; kinase NDR2; read-out: Percent inhibition NDR2
measured metric: inhibition at 10 µM (%)
Please reply with the bare figure in % and do not write the unit itself.

COc1ccc(Nc2nccc(-c3cnn4ncccc34)n2)cc1 ... 91.7
Cc1ccc(O)cc1N(C)c1ccnc(Nc2cccc(S(N)(=O)=O)c2)n1 ... 69.4

Note: attention shifts to another entry.
Query :: Bench note: what inhibition at 10 µM did `Nc1ncc2c(-c3ccncc3)c[nH]c2n1` show?
Result :: 0

====

Quick reference: inhibition at 10 µM of the listed items.
biological target: panel of 203 kinases (Homo sapiens); construct: purchased DiscoverX (KINOMEscan); assay: KINOMEscan competitive binding, whole panel; conditions: 10 µM, n=1; kinase EPHA8; read-out: Percent inhibition EPHA8
Return type: number; implicit unit %.

Please review the entries below; each comes with its answer.
C[C@@H](Oc1cc(-c2cnc3ccccn23)sc1C(N)=O)c1ccccc1Cl [Compound 8] ... 0
Fc1cccc(COc2ccc(Nc3ncnc4c3CN(CCN3CCOCC3)CC4)cc2Cl)c1 [Compound 6] ... 0
Cc1ccc(O)cc1N(C)c1ccnc(Nc2cccc(S(N)(=O)=O)c2)n1 [Compound 4] ... 100

Consider the additional compound presented here.
Query :: Item under review: CN1CCN(c2ccc(Nc3nccc(-c4cnn5ncccc45)n3)cc2C#N)CC1 [Compound 1] . Reported inhibition at 10 µM?
Result :: 0
